Entries and their GI90
tested on: HeLa; assay: Growth inhibition of human HeLa cells by MTT assay; assay type: cell-based; conditions: hela

As a guide, the following entries are already answered.
- Compound: "Cc1ccc2oc(-c3cn(-c4ccc(F)cc4)nc3-c3sc(C)nc3C)cc(=O)c2c1"
  Experimental value: "> 250 µg/mL"
- Compound: "CO[C@H]1/C=C/O[C@@]2(C)Oc3c(C)c(O)c4c(O)c(c(/C=N/N5CCN(C)CC5)c(O)c4c3C2=O)NC(=O)/C(C)=C\\C=C\\[C@H](C)[C@H](O)[C@@H](C)[C@@H](O)[C@@H](C)[C@H](OC(C)=O)[C@@H]1C"
  Experimental value: "> 100 µg/mL"
- Compound: "Cc1nc(C)c(-c2nn(-c3ccc(F)cc3)cc2/C=C/C(=O)c2cc(Br)ccc2O)s1"
  Experimental value: "44.94 µg/mL"
- Compound: "Cc1ccc(O)c(C(=O)/C=C/c2cn(-c3ccc(F)cc3)nc2-c2sc(C)nc2C)c1"
  Experimental value: "77.32 µg/mL"

Turning now to a further compound:
[in] Request - read-out GI90 | tested on HeLa | compound Cc1nc(C)c(-c2nn(-c3ccc(F)cc3)cc2C2CC(c3cc(Cl)c(C)cc3O)=NN2)s1 (stereo not drawn)
[out] > 250 µg/mL
